The following compounds are shown together with reported pEC50 values.
Target: Human Aryl Hydrocarbon Receptor (AHR) (Homo sapiens, UniProt P35869)
Construct: purchased INDIGO Bioscience IB06001-32; host or cells: AHR Reporter Cell (proprietary kit cells)
Sequence (P35869 11-848): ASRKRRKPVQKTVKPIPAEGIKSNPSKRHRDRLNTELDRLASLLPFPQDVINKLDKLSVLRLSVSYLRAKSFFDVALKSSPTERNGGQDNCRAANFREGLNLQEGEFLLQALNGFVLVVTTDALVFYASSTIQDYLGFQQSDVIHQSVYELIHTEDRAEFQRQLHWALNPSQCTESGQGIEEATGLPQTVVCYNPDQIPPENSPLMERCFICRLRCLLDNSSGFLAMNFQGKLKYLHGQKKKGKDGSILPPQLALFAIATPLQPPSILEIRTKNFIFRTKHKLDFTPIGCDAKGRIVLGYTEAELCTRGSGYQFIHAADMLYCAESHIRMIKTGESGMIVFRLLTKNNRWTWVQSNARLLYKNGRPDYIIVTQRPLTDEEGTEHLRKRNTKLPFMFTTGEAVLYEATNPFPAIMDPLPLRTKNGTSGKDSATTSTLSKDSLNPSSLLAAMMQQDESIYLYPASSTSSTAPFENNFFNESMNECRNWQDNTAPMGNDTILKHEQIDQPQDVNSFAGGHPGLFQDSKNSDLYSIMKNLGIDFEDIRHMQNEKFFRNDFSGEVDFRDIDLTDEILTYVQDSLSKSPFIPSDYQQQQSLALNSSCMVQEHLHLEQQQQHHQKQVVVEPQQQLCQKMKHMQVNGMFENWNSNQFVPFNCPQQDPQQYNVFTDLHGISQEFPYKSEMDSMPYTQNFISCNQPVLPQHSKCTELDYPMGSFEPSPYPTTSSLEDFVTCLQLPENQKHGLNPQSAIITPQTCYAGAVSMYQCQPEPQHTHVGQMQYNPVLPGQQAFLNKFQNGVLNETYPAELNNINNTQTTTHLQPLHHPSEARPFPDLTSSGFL
Test: AHR agonist reporter assay in human cell line (INDIGO luciferase reporter)
Assay type: cell-based
Conditions: reporter cells, 24 hours incubation, second line of cell; read-out: AHR abEC50
pEC50: −log10 of the molar value.

line notation: Cc1ccnc2cc(-c3cnc(C(C)C)c(O)c3)ccc12
assayed target: Human Aryl Hydrocarbon Receptor (AHR) (Homo sapiens, UniProt P35869)
comparison symbol: <
pEC50: 7.00
--
line notation: CC(C)c1ncc(-c2cc3ccccc3nc2C#N)cc1O
assayed target: Human Aryl Hydrocarbon Receptor (AHR) (Homo sapiens, UniProt P35869)
comparison symbol: <
pEC50: 7.00
--
line notation: CC(C)c1c(O)cc(-c2cc(F)c3nccnc3c2)cc1O
assayed target: Human Aryl Hydrocarbon Receptor (AHR) (Homo sapiens, UniProt P35869)
comparison symbol: <
pEC50: 7.00
--
line notation: CC(C)c1c(O)cc(Oc2ccccc2)cc1O
assayed target: Human Aryl Hydrocarbon Receptor (AHR) (Homo sapiens, UniProt P35869)
comparison symbol: <
pEC50: 6.40
--
line notation: CC(C)c1c(O)cc(-c2cc3cnccc3cc2F)cc1O
assayed target: Human Aryl Hydrocarbon Receptor (AHR) (Homo sapiens, UniProt P35869)
comparison symbol: <
pEC50: 7.00
--
line notation: COc1cc(-c2nc3ccccc3o2)cc(O)c1C(C)C
assayed target: Human Aryl Hydrocarbon Receptor (AHR) (Homo sapiens, UniProt P35869)
comparison symbol: =
pEC50: 6.40
--
line notation: CC(C)c1c(O)cc(-c2cc3cccnc3cc2F)cc1O
assayed target: Human Aryl Hydrocarbon Receptor (AHR) (Homo sapiens, UniProt P35869)
comparison symbol: <
pEC50: 7.00
--
line notation: CC(C)c1ncc(-c2ccc3ccccc3n2)cc1O
assayed target: Human Aryl Hydrocarbon Receptor (AHR) (Homo sapiens, UniProt P35869)
comparison symbol: =
pEC50: 6.39
--
line notation: CC(C)c1ncc(/C=C/c2cccc(F)c2)cc1O
assayed target: Human Aryl Hydrocarbon Receptor (AHR) (Homo sapiens, UniProt P35869)
comparison symbol: =
pEC50: 6.53
--
line notation: CC(C)c1ncc(/C=C/c2ccccc2F)cc1O
assayed target: Human Aryl Hydrocarbon Receptor (AHR) (Homo sapiens, UniProt P35869)
comparison symbol: =
pEC50: 7.00

----------
Target: Human Aryl Hydrocarbon Receptor (AHR) (Homo sapiens, UniProt P35869)
Construct: purchased INDIGO Bioscience IB06001-32; host or cells: AHR Reporter Cell (proprietary kit cells)
Assay: AHR agonist reporter assay in human cell line (INDIGO luciferase reporter)
Format: cell-based
Conditions: reporter cells, 24 hours incubation, first line of cell; read-out: AHR reEC50
pEC50: −log10 of the molar value.

compound: COc1cc(-c2nc3ccccc3o2)cc(O)c1C(C)C
assayed target: Human Aryl Hydrocarbon Receptor (AHR) (Homo sapiens, UniProt P35869)
pEC50: 6.59

compound: CC(C)c1ncc(/C=C/c2ccccc2)cc1O [Compound 103, (E)-2-isopropyl-5-styrylpyridine-3-ol]
assayed target: Human Aryl Hydrocarbon Receptor (AHR) (Homo sapiens, UniProt P35869)
pEC50: 6.78

compound: CC(C)c1c(O)cc(-c2cnc3ccccc3c2)cc1O
assayed target: Human Aryl Hydrocarbon Receptor (AHR) (Homo sapiens, UniProt P35869)
pEC50: 7.19

compound: CC(C)c1ncc(-c2nc3ccccc3o2)cc1O
assayed target: Human Aryl Hydrocarbon Receptor (AHR) (Homo sapiens, UniProt P35869)
pEC50: 7.66

compound: CC(C)c1ncc(-c2ccc3ccccc3n2)cc1O
assayed target: Human Aryl Hydrocarbon Receptor (AHR) (Homo sapiens, UniProt P35869)
pEC50: 3.75

compound: CC(C)c1ncc(/C=C/c2ccc(F)cc2)cc1O
assayed target: Human Aryl Hydrocarbon Receptor (AHR) (Homo sapiens, UniProt P35869)
pEC50: 6.84

compound: CC(C)c1c(O)cc(-c2nc3ccccc3o2)cc1O
assayed target: Human Aryl Hydrocarbon Receptor (AHR) (Homo sapiens, UniProt P35869)
pEC50: 4.42

compound: CC(C)c1c(O)cc(-c2cc3ccccc3cn2)cc1O
assayed target: Human Aryl Hydrocarbon Receptor (AHR) (Homo sapiens, UniProt P35869)
pEC50: 7.14

compound: CC(C)c1ncc(-c2cc3ccccc3cn2)cc1O
assayed target: Human Aryl Hydrocarbon Receptor (AHR) (Homo sapiens, UniProt P35869)
pEC50: 5.79

compound: CC(C)c1ncc(-c2ccc3ccccc3n2)cc1N
assayed target: Human Aryl Hydrocarbon Receptor (AHR) (Homo sapiens, UniProt P35869)
pEC50: 7.18

----------
Target: Human Aryl Hydrocarbon Receptor (AHR) (Homo sapiens)
Construct: purchased INDIGO Bioscience IB06001-32; host or cells: AHR Reporter Cell (proprietary kit cells)
Assay: AHR agonist reporter assay in human cell line (INDIGO luciferase reporter);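 also: firefly luciferase luminescence read on a plate reader, values normalized against positive and negative controls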
Assay type: cell-based
Details: reporter cells, 24 hours incubation, second line of cell; read-out: AHR abEC50
pEC50: −log10 of the molar value.
recorded metric: pEC50

molecule: CC(C)c1c(O)cc(-c2ccc3nccc(C#N)c3c2)cc1O [Compound 30]
test result: < 7.00
//
molecule: CC(C)c1ncc(-c2cnc3ccccc3c2)cc1N [Compound 120]
test result: < 7.00
//
molecule: CC(C)c1c(O)cc(-c2cnc3ccc(F)cc3c2)cc1O [Compound 11]
test result: < 7.00
//
molecule: CC(C)c1c(O)cc(-c2cc(C(F)(F)F)c3cc(F)ccc3n2)cc1O [Compound 1]
test result: 7.60
//
molecule: COc1cc(-c2cc(O)c(C(C)C)c(O)c2)cc2cccnc12 [Compound 18]
test result: < 7.00
//
molecule: CC(C)c1ncc(/C=C/c2ccccn2)cc1O [Compound 136]
test result: < 7.00
//
molecule: CC(C)Oc1cc(/C=C/c2ccccc2)cc(O)n1 [Compound 106, (E)-6-isopropoxy-4-styrylpyridin-2-ol]
test result: 6.46
//
molecule: COc1cc(/C=C/c2ccccc2)cc(OC)c1C(C)=O [Compound 107]
test result: < 7.00
//
molecule: CC(C)c1ncc(-c2nc3ccccc3[nH]2)cc1N [Compound 134]
test result: 7.00
//
molecule: CC(C)c1ncc(/C=C/c2ccccc2)cc1N [Compound 117]
test result: < 7.00
//
molecule: CC(C)c1c(O)cc(-c2ccc3cc(F)ccc3n2)cc1O [Compound 9]
test result: 7.68
//
molecule: CC(C)c1ncc(-c2ccc3nccc(C#N)c3c2)cc1O [Compound 81]
test result: < 7.00
//
molecule: CC(C)c1ncc(-c2cc(F)c3ncccc3c2F)cc1O [Compound 63]
test result: < 7.00
//
molecule: CC(C)c1ncc(-c2cnc3c(F)c(F)ccc3c2)cc1O [Compound 96]
test result: < 7.00
//
molecule: CC(C)c1c(O)cc(-c2cnc3ccccc3c2)cc1O [Compound 48]
test result: 7.24
//
molecule: COc1cc2ncccc2cc1-c1cnc(C(C)C)c(O)c1 [Compound 72]
test result: < 7.00
//
molecule: CC(C)c1ncc(-c2ccc3nccc(F)c3c2)cc1O [Compound 59]
test result: < 7.00
//
molecule: COc1ccc2ccc(-c3cc(O)c(C(C)C)c(O)c3)cc2n1 [Compound 27]
test result: < 7.00

Source of measurements: patent US20250136556A1
